Every entry's value here was drawn from patent US20250109215A1.

Target: T1, human CD123 (human, UniProt P26951 19-305, limits assumed)
T1 construct: Construct on the chip is not described; also called CD123 chip
T1 sequence (looked up): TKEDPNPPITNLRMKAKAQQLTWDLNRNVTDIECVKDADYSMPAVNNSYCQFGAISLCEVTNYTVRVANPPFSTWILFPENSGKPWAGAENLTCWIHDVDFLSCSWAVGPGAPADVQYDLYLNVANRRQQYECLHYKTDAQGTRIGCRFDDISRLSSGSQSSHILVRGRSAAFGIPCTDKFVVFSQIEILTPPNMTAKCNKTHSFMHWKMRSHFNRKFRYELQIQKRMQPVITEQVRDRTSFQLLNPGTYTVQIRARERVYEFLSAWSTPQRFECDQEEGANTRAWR
Assay: off-rate screen of Fab-His on a Biacore CD123 chip (Example 3), relative to 7G3 H1L1 Fab
Give Fulfilled when the value for Fold improvement in off-rate vs. H1L1 is at least 2 fold. Give Not fulfilled when it is less.

1. 13760 7G3_H0L0_Fab_His (Fab, V domains shown, Fab of the murine 7G3 variable regions; also called XENP13760) VH: EVQLQQSGPELVKPGASVKMSCKASGYTFTDYYMKWVKQSHGKSLEWIGDIIPSNGATFYNQKFKGKATLTVDRSSSTAYMHLNSLTSEDSAVYYCTRSHLLRASWFAYWGQGTLVTVSA VL: DFVMTQSPSSLTVTAGEKVTMSCKSSQSLLNSGNQKNYLTWYLQKPGQPPKLLIYWASTRESGVPDRFTGSGSGTDFTLTISSVQAEDLAVYYCQNDYSYPYTFGGGTKLEIKR	Fulfilled
2. 13741 7G3_H1.92_L1_Fab_His (Fab, V domains shown, also called XENP13741; copies: 1 + 1) VH: QVQLVQSGAEVKKPGASVKVSCKASGYTFTDYYMKWVRQAPGQSLEWMGDIIPSNGATFYNQKFQGRVTMTVDRSTSTAYMELSSLTSEDTAVYYCTRSHLLRASWFAYWGQGTLVTVSS VL: DFVMTQSPDSLAVSLGERATINCKSSQSLLNSGNQKNYLTWYQQKPGQPPKLLIYWASTRESGVPDRFTGSGSGTDFTLTISSLQAEDVAVYYCQNDYSYPYTFGGGTKLEIKR	Not fulfilled
3. 13735 7G3_H1.86_L1_Fab_His (Fab, V domains shown, also called XENP13735; copies: 1 + 1) VH: QVQLVQSGAEVKKPGASVKVSCKASGYTFTDYYMKWVRQAPGQSLEWMGDIIPSNGATFYNQKFKGKATLTVDRSTSTAYMELSSLRSEDTAVYYCTRSHLLRASWFAYWGQGTLVTVSS VL: DFVMTQSPDSLAVSLGERATINCKSSQSLLNSGNQKNYLTWYQQKPGQPPKLLIYWASTRESGVPDRFTGSGSGTDFTLTISSLQAEDVAVYYCQNDYSYPYTFGGGTKLEIKR	Fulfilled
4. 13737 7G3_H1.88_L1_Fab_His (Fab, V domains shown, also called XENP13737; copies: 1 + 1) VH: QVQLVQSGAEVKKPGASVKVSCKASGYTFTDYYMKWVRQAHGQSLEWMGDIIPSNGATFYNQKFQGRVTMTVDRSTSTAYMELSSLRSEDTAVYYCTRSHLLRASWFAYWGQGTLVTVSS VL: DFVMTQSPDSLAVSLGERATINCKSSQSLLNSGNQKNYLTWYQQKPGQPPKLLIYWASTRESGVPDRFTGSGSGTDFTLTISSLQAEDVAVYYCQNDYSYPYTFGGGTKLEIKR	Not fulfilled
5. 13743 7G3_H1.94_L1_Fab_His (Fab, V domains shown, also called XENP13743; copies: 1 + 1) VH: QVQLVQSGAEVKKPGASVKVSCKASGYTFTDYYMKWVKQSHGKSLEWMGDIIPSNGATFYNQKFQGRVTMTVDRSTSTAYMELSSLRSEDTAVYYCTRSHLLRASWFAYWGQGTLVTVSS VL: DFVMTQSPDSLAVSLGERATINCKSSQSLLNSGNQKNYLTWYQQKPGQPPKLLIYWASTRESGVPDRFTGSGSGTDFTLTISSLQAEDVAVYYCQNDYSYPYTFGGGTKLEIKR	Not fulfilled
